# maps each entry to its EC50
- Target system: Nuclear receptor ROR-gamma (Homo sapiens, UniProt P51449)
- Sequence (P51449 whole entry, the tested form may be a part): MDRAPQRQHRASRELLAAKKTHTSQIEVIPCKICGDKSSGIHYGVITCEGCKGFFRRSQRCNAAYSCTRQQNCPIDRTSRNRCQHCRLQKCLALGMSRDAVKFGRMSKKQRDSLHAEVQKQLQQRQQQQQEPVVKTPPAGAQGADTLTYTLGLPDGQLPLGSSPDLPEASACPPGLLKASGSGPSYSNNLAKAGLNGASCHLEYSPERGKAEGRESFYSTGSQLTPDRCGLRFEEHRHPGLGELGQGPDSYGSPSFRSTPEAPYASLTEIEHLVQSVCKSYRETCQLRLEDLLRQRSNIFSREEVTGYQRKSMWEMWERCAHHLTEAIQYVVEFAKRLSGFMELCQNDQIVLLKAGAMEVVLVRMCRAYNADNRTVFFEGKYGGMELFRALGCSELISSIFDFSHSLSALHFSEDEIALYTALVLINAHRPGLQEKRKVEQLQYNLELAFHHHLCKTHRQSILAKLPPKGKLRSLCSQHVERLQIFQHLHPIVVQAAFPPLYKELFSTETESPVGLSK
- Procedure details: Agonist activity at RoRc-LBD (unknown origin) expressed in HEK293 cells assessed as transcriptional activity by GAL4 reporter assay
- Type: functional, cell-based

Past entries and their recorded results:
O=S(=O)(c1cc(F)ccc1OC(F)(F)F)N1Cc2nccnc2-n2ccnc2[C@H]1Cc1ccccc1 :: < 0.5 µM
Cc1c(S(N)(=O)=O)cc(-c2cn(S(=O)(=O)N3CCCCC3)c3ccccc23)n1CC1CCCCC1 :: < 0.5 µM
Cc1c(C(=O)N2CC3(CCS(=O)(=O)CC3)C2)cc(-c2ccc(S(=O)(=O)NC(C)(C)C)c3ccccc23)n1CC1CCCCC1 :: 0.016 µM
Cc1c(C(=O)NC2CCOCC2)cc(-c2cc(C(C)(C)C)c3c(c2)C2(CCO3)CC2)n1CC1CCCCC1 :: 0.04 µM
CO[C@@H]1Cc2ccccc2CN(S(=O)(=O)c2cccc3cccnc23)[C@@H]1Cc1ccccc1 :: < 0.5 µM
Cc1c(S(=O)(=O)NCCO)cc(-c2cc(C(C)(C)C)cc(C(C)(C)C)c2)n1CC1CCCCC1 :: < 0.5 µM
O=S(=O)(c1ccccc1OC(F)(F)F)N1Cc2cncnc2-n2ccnc2[C@H]1Cc1ccccc1 :: < 0.5 µM

Consider the additional compound presented here.
Q) Entry Cc1c(S(N)(=O)=O)cc(-c2cc(C(C)(C)C)cc(C(C)(C)C)c2)n1CC1CCCCC1 needs its EC50 filled in; supply it.
A) < 0.5 µM
